Target: human H1R (Homo sapiens)
Sequence (P35367 whole entry): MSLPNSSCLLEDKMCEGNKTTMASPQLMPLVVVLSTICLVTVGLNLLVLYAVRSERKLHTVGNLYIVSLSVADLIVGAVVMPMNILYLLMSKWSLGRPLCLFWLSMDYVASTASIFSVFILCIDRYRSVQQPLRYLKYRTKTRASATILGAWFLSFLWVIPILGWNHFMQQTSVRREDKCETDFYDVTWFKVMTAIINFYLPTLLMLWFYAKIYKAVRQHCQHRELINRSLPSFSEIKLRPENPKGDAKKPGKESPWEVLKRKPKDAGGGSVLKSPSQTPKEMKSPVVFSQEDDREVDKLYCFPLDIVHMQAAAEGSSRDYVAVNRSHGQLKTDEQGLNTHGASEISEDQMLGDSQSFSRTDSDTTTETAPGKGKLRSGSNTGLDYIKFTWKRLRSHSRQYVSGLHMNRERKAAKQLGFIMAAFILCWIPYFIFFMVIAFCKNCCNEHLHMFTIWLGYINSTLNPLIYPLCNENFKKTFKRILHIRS
Test: Human H1R radioligand displacement assay
Format: binding
Conditions: read-out: hH1R Inhibition at 10 µM [%] ±SD (n)
Classification field: True = inhibition at 10 µM at or over 10%; False = inhibition at 10 µM under 10%.

{"Compound Structure String": "CCOC(=O)c1nc2ccc(OCCN3CCCC3)cc2s1", "Qualitative Label": "False"}
{"Compound Structure String": "COC(=O)c1nc2ccc(OCCCN[C@@H](Cc3ccc(O)cc3)C(=O)OC)cc2s1", "Qualitative Label": "False"}
{"Compound Structure String": "O=C(NCC1CCCCC1)c1nc2ccc(OCCNCC3CCCCC3)cc2s1", "Qualitative Label": "False"}
{"Compound Structure String": "O=C(NC1CC1)c1nc2ccc(OCCCNC3CC3)cc2s1", "Qualitative Label": "True"}
{"Compound Structure String": "O=C(NCC1CCCCC1)c1nc2ccc(OCCCNCC3CCCCC3)cc2s1", "Qualitative Label": "True"}
{"Compound Structure String": "O=C(c1nc2ccc(OCCCCCN3CCCCC3)cc2s1)N1CCCCC1", "Qualitative Label": "True"}
{"Compound Structure String": "O=C(c1nc2ccc(OCCCCN3CCCC3)cc2s1)N1CCCC1", "Qualitative Label": "True"}
{"Compound Structure String": "O=C(c1nc2ccc(OCCCN3CCCCC3)cc2s1)N1CCCCC1", "Qualitative Label": "True"}
